Quick reference for % Activation (vs ANP max), Expt 1 among some binders
Target: T1, human NPR1 on HEK293/hNPR1.myc.DDK cells (0 hANP) (human, UniProt P16066 33-1061)
T1 sequence: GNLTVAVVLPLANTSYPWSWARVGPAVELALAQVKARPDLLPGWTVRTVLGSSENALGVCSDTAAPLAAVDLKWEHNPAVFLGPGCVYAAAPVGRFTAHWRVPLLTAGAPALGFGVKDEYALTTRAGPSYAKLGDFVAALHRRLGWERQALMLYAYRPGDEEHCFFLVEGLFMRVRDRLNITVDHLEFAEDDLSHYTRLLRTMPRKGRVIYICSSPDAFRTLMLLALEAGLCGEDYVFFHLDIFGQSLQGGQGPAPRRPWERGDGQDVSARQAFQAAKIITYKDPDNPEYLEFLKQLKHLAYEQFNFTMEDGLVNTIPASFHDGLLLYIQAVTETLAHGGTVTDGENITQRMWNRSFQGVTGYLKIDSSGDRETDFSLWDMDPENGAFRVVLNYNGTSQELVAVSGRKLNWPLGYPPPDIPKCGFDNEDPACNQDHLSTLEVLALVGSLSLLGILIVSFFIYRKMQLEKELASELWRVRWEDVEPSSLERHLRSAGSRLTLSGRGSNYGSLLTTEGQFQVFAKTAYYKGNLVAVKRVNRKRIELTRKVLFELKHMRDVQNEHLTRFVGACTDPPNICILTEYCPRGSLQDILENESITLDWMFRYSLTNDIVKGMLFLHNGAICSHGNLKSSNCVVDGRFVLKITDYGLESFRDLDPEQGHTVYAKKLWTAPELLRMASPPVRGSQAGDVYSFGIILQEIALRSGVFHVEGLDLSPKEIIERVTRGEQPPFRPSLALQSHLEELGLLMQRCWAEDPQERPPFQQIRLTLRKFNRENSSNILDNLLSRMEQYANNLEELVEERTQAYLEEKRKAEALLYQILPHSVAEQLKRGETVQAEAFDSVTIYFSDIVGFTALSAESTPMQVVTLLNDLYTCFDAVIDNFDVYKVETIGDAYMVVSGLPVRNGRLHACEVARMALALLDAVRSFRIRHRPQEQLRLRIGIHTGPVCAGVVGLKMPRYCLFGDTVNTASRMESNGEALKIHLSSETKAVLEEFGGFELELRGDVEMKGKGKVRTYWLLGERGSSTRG
Test: cell-based or functional assay
observed_property: % Activation (vs ANP max), Expt 1 (%)

INSERT INTO measurements (binder, recorded_measurement) VALUES
  ('mAb22033 (antibody, human IgG4, V domains shown) VH: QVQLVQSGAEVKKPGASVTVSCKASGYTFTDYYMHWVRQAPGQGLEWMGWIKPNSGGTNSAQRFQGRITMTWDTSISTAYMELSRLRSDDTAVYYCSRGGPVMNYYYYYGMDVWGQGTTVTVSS VL: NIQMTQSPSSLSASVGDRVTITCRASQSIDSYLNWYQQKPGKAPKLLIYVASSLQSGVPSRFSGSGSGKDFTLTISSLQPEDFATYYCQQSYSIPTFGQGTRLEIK', 130),
  ('mAb25479 (antibody, human IgG4, V domains shown) VH: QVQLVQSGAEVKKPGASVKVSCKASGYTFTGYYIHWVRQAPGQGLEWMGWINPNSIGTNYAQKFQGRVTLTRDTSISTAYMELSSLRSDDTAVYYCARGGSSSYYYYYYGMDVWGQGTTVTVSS VL: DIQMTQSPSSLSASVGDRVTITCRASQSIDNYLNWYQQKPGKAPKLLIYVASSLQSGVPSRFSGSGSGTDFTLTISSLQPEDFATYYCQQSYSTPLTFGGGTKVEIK', 66.7),
  ('mAb25508 (antibody, human IgG4, V domains shown) VH: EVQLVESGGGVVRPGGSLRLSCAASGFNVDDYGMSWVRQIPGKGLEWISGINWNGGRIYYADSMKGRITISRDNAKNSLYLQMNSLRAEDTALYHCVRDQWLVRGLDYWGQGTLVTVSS VL: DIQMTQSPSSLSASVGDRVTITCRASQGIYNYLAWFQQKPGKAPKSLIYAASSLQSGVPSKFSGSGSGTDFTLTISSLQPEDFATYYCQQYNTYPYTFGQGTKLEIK', 56.1),
  ('mAb22805 (antibody, human IgG4, V domains shown) VH: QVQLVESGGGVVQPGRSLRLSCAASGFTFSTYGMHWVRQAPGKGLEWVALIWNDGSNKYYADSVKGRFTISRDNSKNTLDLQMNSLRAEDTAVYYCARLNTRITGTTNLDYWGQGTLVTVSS VL: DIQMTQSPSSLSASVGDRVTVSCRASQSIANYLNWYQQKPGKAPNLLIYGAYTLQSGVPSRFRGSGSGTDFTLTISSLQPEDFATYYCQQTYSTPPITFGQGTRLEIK', 91.6);

Reference source for all entries: patent US20240309103A1
